target: PTK2 (human); experiment: KINOMEscan competition binding; settings: compound 10.0 µM
Reported kinase still bound, per cent of control values for the following compounds.

{"structure_smiles_string": "CC(C)n1nc(-c2cc3cc(O)ccc3[nH]2)c2c(N)ncnc21", "target_under_test": "PTK2 (human)", "kinase still bound, per cent of control (%)": 100}
{"structure_smiles_string": "COc1ccc(-c2ccc3c(N4CCOCC4)nc(N4C[C@@H](C)O[C@@H](C)C4)nc3n2)cc1CO", "target_under_test": "PTK2 (human)", "kinase still bound, per cent of control (%)": 95}
{"structure_smiles_string": "COC(=O)Nc1ccc(-c2nc(N3CCOCC3)c3cnn(C4CCN(C(=O)OC)CC4)c3n2)cc1", "target_under_test": "PTK2 (human)", "kinase still bound, per cent of control (%)": 94}
{"structure_smiles_string": "CCC(=O)N1CCN(c2ccc(-n3c(=O)ccc4cnc5ccc(-c6cnc7ccccc7c6)cc5c43)cc2C(F)(F)F)CC1", "target_under_test": "PTK2 (human)", "kinase still bound, per cent of control (%)": 14}

* * *

kinase still bound, per cent of control values, listed per item
target: ADCK4 (human); assay: KINOMEscan competition binding; details: compound 10.0 µM
measure: kinase still bound, per cent of control (%)

{"structure_smiles_string": "COc1ccc(-c2ccc3c(N4CCOCC4)nc(N4C[C@@H](C)O[C@@H](C)C4)nc3n2)cc1CO", "measure": "kinase still bound, per cent of control", "readout_number": 87}
{"structure_smiles_string": "CC(C)n1nc(-c2cc3cc(O)ccc3[nH]2)c2c(N)ncnc21", "measure": "kinase still bound, per cent of control", "readout_number": 13}
{"structure_smiles_string": "COC(=O)Nc1ccc(-c2nc(N3CCOCC3)c3cnn(C4CCN(C(=O)OC)CC4)c3n2)cc1", "measure": "kinase still bound, per cent of control", "readout_number": 73}
{"structure_smiles_string": "CCC(=O)N1CCN(c2ccc(-n3c(=O)ccc4cnc5ccc(-c6cnc7ccccc7c6)cc5c43)cc2C(F)(F)F)CC1", "measure": "kinase still bound, per cent of control", "readout_number": 15}

* * *

molecular target: MAP2K7 (human); assay: KINOMEscan competition binding; conditions: compound 10.0 µM

{"structure_smiles_string": "CC(C)n1nc(-c2cc3cc(O)ccc3[nH]2)c2c(N)ncnc21", "kinase still bound, per cent of control, %": 75}
{"structure_smiles_string": "COc1ccc(-c2ccc3c(N4CCOCC4)nc(N4C[C@@H](C)O[C@@H](C)C4)nc3n2)cc1CO", "kinase still bound, per cent of control, %": 100}
{"structure_smiles_string": "CCC(=O)N1CCN(c2ccc(-n3c(=O)ccc4cnc5ccc(-c6cnc7ccccc7c6)cc5c43)cc2C(F)(F)F)CC1", "kinase still bound, per cent of control, %": 100}
{"structure_smiles_string": "COC(=O)Nc1ccc(-c2nc(N3CCOCC3)c3cnn(C4CCN(C(=O)OC)CC4)c3n2)cc1", "kinase still bound, per cent of control, %": 100}

* * *

# kinase still bound, per cent of control annotations
target: ACVRL1 (human) (UniProt P37023); experiment: KINOMEscan competition binding; settings: compound 10.0 µM
Sequence (P37023 whole entry, looked up): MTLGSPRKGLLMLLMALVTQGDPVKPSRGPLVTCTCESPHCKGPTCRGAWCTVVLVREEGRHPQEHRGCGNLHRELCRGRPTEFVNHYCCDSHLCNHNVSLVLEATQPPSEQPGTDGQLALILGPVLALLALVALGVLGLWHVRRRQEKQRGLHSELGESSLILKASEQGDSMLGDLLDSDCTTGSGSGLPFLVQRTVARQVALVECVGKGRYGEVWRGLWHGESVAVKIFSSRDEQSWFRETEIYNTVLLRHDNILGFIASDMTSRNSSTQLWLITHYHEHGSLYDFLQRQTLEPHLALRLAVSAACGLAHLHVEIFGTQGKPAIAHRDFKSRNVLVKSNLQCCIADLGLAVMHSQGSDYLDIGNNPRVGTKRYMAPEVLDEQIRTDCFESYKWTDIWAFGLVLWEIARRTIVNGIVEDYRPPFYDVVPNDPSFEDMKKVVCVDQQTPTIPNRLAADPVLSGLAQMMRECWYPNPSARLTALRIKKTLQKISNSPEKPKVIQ
measure: kinase still bound, per cent of control (%)

{"structure_smiles_string": "CCC(=O)N1CCN(c2ccc(-n3c(=O)ccc4cnc5ccc(-c6cnc7ccccc7c6)cc5c43)cc2C(F)(F)F)CC1", "units": "%", "readout_number": 83}
{"structure_smiles_string": "CC(C)n1nc(-c2cc3cc(O)ccc3[nH]2)c2c(N)ncnc21", "units": "%", "readout_number": 6.7}
{"structure_smiles_string": "COC(=O)Nc1ccc(-c2nc(N3CCOCC3)c3cnn(C4CCN(C(=O)OC)CC4)c3n2)cc1", "units": "%", "readout_number": 100}
{"structure_smiles_string": "COc1ccc(-c2ccc3c(N4CCOCC4)nc(N4C[C@@H](C)O[C@@H](C)C4)nc3n2)cc1CO", "units": "%", "readout_number": 100}

* * *

test system: LCK (mouse); conditions: compound 1.0 µM; accession and sequence are those of the human protein
measure: per cent of control (%)

{"structure_smiles_string": "COC(=O)Nc1ccc(-c2nc(N3CCOCC3)c3cnn(C4CCN(C(=O)OC)CC4)c3n2)cc1", "units": "%", "readout_number": 100}
{"structure_smiles_string": "COc1ccc(-c2ccc3c(N4CCOCC4)nc(N4C[C@@H](C)O[C@@H](C)C4)nc3n2)cc1CO", "units": "%", "readout_number": 69}
{"structure_smiles_string": "CCC(=O)N1CCN(c2ccc(-n3c(=O)ccc4cnc5ccc(-c6cnc7ccccc7c6)cc5c43)cc2C(F)(F)F)CC1", "units": "%", "readout_number": 93}
{"structure_smiles_string": "CC(C)n1nc(-c2cc3cc(O)ccc3[nH]2)c2c(N)ncnc21", "units": "%", "readout_number": 13}

* * *

target: RIOK2 (human) (UniProt Q9BVS4); test: KINOMEscan competition binding; settings: compound 10.0 µM
Sequence (Q9BVS4 whole entry, looked up): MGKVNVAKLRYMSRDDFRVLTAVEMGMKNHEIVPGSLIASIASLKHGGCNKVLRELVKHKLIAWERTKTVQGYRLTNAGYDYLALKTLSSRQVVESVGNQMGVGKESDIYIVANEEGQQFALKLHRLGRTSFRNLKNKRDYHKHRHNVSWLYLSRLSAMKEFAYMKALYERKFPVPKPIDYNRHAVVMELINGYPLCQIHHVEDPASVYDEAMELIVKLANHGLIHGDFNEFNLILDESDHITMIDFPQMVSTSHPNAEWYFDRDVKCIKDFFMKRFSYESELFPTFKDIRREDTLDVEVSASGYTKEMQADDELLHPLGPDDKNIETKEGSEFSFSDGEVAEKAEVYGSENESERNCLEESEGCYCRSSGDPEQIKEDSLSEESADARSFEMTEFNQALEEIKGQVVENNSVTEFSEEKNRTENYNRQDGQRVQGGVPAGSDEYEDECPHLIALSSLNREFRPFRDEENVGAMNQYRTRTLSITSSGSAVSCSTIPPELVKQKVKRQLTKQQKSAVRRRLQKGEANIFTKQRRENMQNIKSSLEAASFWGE

{"structure_smiles_string": "COc1ccc(-c2ccc3c(N4CCOCC4)nc(N4C[C@@H](C)O[C@@H](C)C4)nc3n2)cc1CO", "target_under_test": "RIOK2 (human) (UniProt Q9BVS4)", "kinase still bound, per cent of control": "60%"}
{"structure_smiles_string": "CC(C)n1nc(-c2cc3cc(O)ccc3[nH]2)c2c(N)ncnc21", "target_under_test": "RIOK2 (human) (UniProt Q9BVS4)", "kinase still bound, per cent of control": "38%"}
{"structure_smiles_string": "CCC(=O)N1CCN(c2ccc(-n3c(=O)ccc4cnc5ccc(-c6cnc7ccccc7c6)cc5c43)cc2C(F)(F)F)CC1", "target_under_test": "RIOK2 (human) (UniProt Q9BVS4)", "kinase still bound, per cent of control": "24%"}
{"structure_smiles_string": "COC(=O)Nc1ccc(-c2nc(N3CCOCC3)c3cnn(C4CCN(C(=O)OC)CC4)c3n2)cc1", "target_under_test": "RIOK2 (human) (UniProt Q9BVS4)", "kinase still bound, per cent of control": "79%"}

* * *

biological target: BMP2K (human) (UniProt Q9NSY1); experiment: KINOMEscan competition binding; details: compound 10.0 µM
Sequence (Q9NSY1 whole entry, looked up): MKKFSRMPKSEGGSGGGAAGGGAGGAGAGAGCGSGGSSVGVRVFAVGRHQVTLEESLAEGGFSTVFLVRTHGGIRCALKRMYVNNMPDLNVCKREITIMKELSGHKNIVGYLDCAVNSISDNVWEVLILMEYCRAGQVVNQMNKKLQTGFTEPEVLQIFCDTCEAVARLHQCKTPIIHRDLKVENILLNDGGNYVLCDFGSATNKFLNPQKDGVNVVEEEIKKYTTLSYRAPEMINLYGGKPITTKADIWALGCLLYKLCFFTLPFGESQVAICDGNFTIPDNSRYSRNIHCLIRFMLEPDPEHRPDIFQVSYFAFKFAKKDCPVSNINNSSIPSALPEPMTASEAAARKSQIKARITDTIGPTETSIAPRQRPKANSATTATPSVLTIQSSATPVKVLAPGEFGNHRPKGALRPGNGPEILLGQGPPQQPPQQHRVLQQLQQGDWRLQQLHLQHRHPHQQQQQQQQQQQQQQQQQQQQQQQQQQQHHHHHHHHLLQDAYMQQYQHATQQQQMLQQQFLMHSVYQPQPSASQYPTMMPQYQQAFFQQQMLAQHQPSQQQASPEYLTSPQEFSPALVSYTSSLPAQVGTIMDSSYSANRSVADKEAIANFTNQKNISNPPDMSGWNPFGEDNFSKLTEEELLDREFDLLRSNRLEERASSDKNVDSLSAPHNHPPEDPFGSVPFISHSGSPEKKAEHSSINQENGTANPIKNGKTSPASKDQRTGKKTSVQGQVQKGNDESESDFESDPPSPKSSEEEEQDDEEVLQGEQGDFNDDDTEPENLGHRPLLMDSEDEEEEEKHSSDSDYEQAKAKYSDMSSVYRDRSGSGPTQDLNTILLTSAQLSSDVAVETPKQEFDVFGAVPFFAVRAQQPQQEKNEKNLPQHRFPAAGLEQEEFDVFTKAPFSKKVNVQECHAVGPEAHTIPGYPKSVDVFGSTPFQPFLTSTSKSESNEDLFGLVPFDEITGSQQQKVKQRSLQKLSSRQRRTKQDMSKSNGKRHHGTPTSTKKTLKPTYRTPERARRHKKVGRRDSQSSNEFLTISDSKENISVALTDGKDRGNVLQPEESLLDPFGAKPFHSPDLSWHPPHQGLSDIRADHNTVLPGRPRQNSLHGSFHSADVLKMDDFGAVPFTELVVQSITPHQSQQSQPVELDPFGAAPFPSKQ

{"structure_smiles_string": "COC(=O)Nc1ccc(-c2nc(N3CCOCC3)c3cnn(C4CCN(C(=O)OC)CC4)c3n2)cc1", "target_under_test": "BMP2K (human) (UniProt Q9NSY1)", "kinase still bound, per cent of control": "99%"}
{"structure_smiles_string": "CCC(=O)N1CCN(c2ccc(-n3c(=O)ccc4cnc5ccc(-c6cnc7ccccc7c6)cc5c43)cc2C(F)(F)F)CC1", "target_under_test": "BMP2K (human) (UniProt Q9NSY1)", "kinase still bound, per cent of control": "100%"}
{"structure_smiles_string": "COc1ccc(-c2ccc3c(N4CCOCC4)nc(N4C[C@@H](C)O[C@@H](C)C4)nc3n2)cc1CO", "target_under_test": "BMP2K (human) (UniProt Q9NSY1)", "kinase still bound, per cent of control": "98%"}
{"structure_smiles_string": "CC(C)n1nc(-c2cc3cc(O)ccc3[nH]2)c2c(N)ncnc21", "target_under_test": "BMP2K (human) (UniProt Q9NSY1)", "kinase still bound, per cent of control": "33%"}

* * *

molecular target: JAK1 JH1 catalytic (human); assay: KINOMEscan competition binding; conditions: compound 10.0 µM
Recorded kinase still bound, per cent of control by entry
measure: kinase still bound, per cent of control (%)

{"structure_smiles_string": "COc1ccc(-c2ccc3c(N4CCOCC4)nc(N4C[C@@H](C)O[C@@H](C)C4)nc3n2)cc1CO", "measure": "kinase still bound, per cent of control", "readout_number": 84}
{"structure_smiles_string": "CCC(=O)N1CCN(c2ccc(-n3c(=O)ccc4cnc5ccc(-c6cnc7ccccc7c6)cc5c43)cc2C(F)(F)F)CC1", "measure": "kinase still bound, per cent of control", "readout_number": 82}
{"structure_smiles_string": "COC(=O)Nc1ccc(-c2nc(N3CCOCC3)c3cnn(C4CCN(C(=O)OC)CC4)c3n2)cc1", "measure": "kinase still bound, per cent of control", "readout_number": 100}
{"structure_smiles_string": "CC(C)n1nc(-c2cc3cc(O)ccc3[nH]2)c2c(N)ncnc21", "measure": "kinase still bound, per cent of control", "readout_number": 11}

* * *

target: AURKB (human); assay: KINOMEscan competition binding; conditions: compound 10.0 µM
Recorded kinase still bound, per cent of control for the following compounds

{"structure_smiles_string": "CCC(=O)N1CCN(c2ccc(-n3c(=O)ccc4cnc5ccc(-c6cnc7ccccc7c6)cc5c43)cc2C(F)(F)F)CC1", "kinase still bound, per cent of control / %": 82}
{"structure_smiles_string": "COc1ccc(-c2ccc3c(N4CCOCC4)nc(N4C[C@@H](C)O[C@@H](C)C4)nc3n2)cc1CO", "kinase still bound, per cent of control / %": 73}
{"structure_smiles_string": "COC(=O)Nc1ccc(-c2nc(N3CCOCC3)c3cnn(C4CCN(C(=O)OC)CC4)c3n2)cc1", "kinase still bound, per cent of control / %": 100}
{"structure_smiles_string": "CC(C)n1nc(-c2cc3cc(O)ccc3[nH]2)c2c(N)ncnc21", "kinase still bound, per cent of control / %": 85}
